Molecular target: UniProtKB P08172
Sequence (P08172 1-466): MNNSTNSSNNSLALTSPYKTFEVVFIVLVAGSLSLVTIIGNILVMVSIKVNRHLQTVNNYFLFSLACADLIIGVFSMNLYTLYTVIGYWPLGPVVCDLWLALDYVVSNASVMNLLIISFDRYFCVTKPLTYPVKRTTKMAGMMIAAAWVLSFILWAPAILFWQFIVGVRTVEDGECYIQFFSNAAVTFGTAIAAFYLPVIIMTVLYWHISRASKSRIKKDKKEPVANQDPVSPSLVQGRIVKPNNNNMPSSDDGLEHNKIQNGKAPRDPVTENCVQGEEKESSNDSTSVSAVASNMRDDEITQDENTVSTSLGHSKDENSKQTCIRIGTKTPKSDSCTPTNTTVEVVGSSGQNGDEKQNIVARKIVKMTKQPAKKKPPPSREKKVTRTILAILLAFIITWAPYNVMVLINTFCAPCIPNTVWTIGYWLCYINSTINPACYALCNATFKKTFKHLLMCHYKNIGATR
Conditions: Receptor activity EC50, allosteric potency at EC20 acetylcholine; M2-GIRK1/4 reporter cells; in some cases mean of two or more determinations
measured_endpoint: EC50 (nM)

1 = O=C(NC(CC(F)(F)F)C(F)(F)F)c1cn(-c2c(F)cc(F)cc2F)c2nc(N3CCNC3=O)ccc2c1=O (racemic) [Example 588]
2 = O=C(N[C@@H](C1CC1)C(F)(F)F)c1cn(-c2c(F)cc(F)cc2F)c2nc(N3CC(O)C4(CC4)C3)ccc2c1=O (single isomer, unassigned) [Example 602]
3 = CC1(O)CCCN(c2ccc3c(=O)c(C(=O)N[C@@H](C4CC4)C(F)(F)F)cn(-c4c(F)cc(F)cc4F)c3n2)C1 (stereo partly drawn)
Q: Could you please sort these 3 entries by EC50 from high to low? Rank them, then answer with their labels in that order.
A: 3, 2, 1

====

target: human M2 receptor (Homo sapiens, UniProt P08172); conditions: Receptor activity EC50, M2-GIRK1/4 activation test, acetylcholine at EC20; allosteric potency; in some cases mean values from two or more determinations
pEC50: −log10 of the molar value.
measured_endpoint: pEC50

Q: Request body: readout pEC50, system human M2 receptor (Homo sapiens, UniProt P08172), query CC(C)(CC(F)(F)F)NC(=O)c1cn(-c2c(F)cc(F)cc2F)c2nc(N3C[C@@H](O)[C@H](O)C3)ccc2c1=O . Return the value.
A: 7.85

Q: Request body: readout pEC50, system human M2 receptor (Homo sapiens, UniProt P08172), query O=C(Nc1c(Cl)cccc1Cl)c1cn(-c2ccc(F)cc2F)c2nc(N3CC[C@H](O)C3=O)ccc2c1=O . Return the value.
A: 7.05

Q: Request body: readout pEC50, system human M2 receptor (Homo sapiens, UniProt P08172), query O=C(NC12CC3CC(CC(C3)C1)C2)c1cn(-c2ccc(F)cc2F)c2nc(N3CCOCC3=O)ccc2c1=O . Return the value.
A: 7.08

Q: Request body: readout pEC50, system human M2 receptor (Homo sapiens, UniProt P08172), query O=C(NC12CC3CC(CC(C3)C1)C2)c1cn(-c2ccc(F)cc2F)c2nc(N3CCC4(C3)CC4(F)F)ccc2c1=O (centres unmarked) . Return the value.
A: 7.15

Q: Request body: readout pEC50, system human M2 receptor (Homo sapiens, UniProt P08172), query CC[C@@H](NC(=O)c1cn(-c2ccc(F)cc2F)c2nc(N3CC[C@H](F)C3)ccc2c1=O)C(F)(F)F . Return the value.
A: 7.64

Q: Request body: readout pEC50, system human M2 receptor (Homo sapiens, UniProt P08172), query NC(=O)N1CCN(c2ccc3c(=O)c(C(=O)NC45CC6CC(CC(C6)C4)C5)cn(-c4ccc(F)cc4F)c3n2)CC1 . Return the value.
A: 7.19

A = CC[C@H](NC(=O)c1cn(-c2ccc(F)cc2F)c2nc(N3CCC(O)C3)ccc2c1=O)C(F)(F)F (single isomer, unassigned) [Example 219]
B = CC[C@H](NC(=O)c1cn(-c2ccc(F)cc2F)c2nc(N3CC[C@H](F)C3)ccc2c1=O)C(F)(F)F
Q: Field: entry with larger pEC50 (options A / B ). Please reply using the label of the selected record.
A: B
(B: 7.92, A: 6.97)

a = O=C(NCc1c(Cl)cccc1Cl)c1cn(-c2ccc(F)cc2F)c2nc(N3CCCS3(=O)=O)ccc2c1=O
b = CC[C@@H](NC(=O)c1cn(-c2c(F)cccc2F)c2nc(N3CCC(O)C3=O)ccc2c1=O)C(F)(F)F (mixture of isomers) [Example 292]
Q: I'm curious, which of these has a smaller pEC50 number: a or b ? Please reply using the label of the selected record.
A: a
(a: 6.74, b: 7.23)

Provenance of the data: patent US20190367516A1
